Experimental target: Mcl-1 (Homo sapiens (Human), UniProt Q07820)
Sequence (Q07820 172-327): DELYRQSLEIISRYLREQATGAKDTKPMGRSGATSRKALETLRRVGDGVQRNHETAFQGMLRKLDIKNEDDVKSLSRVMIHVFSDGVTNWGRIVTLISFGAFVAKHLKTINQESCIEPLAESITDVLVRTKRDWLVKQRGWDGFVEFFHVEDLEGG
Protocol summary: Fluorescence polarization anisotropy (FPA) competition assay, FITC-Bak or FITC-Bim BH3 peptide
Format: binding
Test settings: read-out: Ki for Inhibition of Mcl-1 by FPA assay
pKi: −log10 of the molar value.
Recorded pKi for the following molecules

- Query smiles: "COc1cc(C(=O)O)cc(N2CCCn3c(c(CCCOc4cc(C)c(Cl)c(C)c4)c4ccc(Cl)c(-c5c(C)nn(C)c5C)c43)C2=O)c1OCCc1ccccc1"
  Op: "="
  pKi: 8.37
- Query smiles: "Cc1cc(OCCCc2c3n(c4c(-c5c(C)ncnc5C)c(Cl)ccc24)CCCN(c2cccc4cc(C(=O)O)n(C)c24)C3=O)cc(C)c1Cl"
  Op: "="
  pKi: 8.66
- Query smiles: "Cc1cc(OCCCc2c3n(c4c(-c5c(C)nn(C)c5C)c(Cl)ccc24)CCCN(c2ccc4c(c2)CCCN4CC(=O)O)C3=O)cc(C)c1Cl"
  Op: "="
  pKi: 7.59
- Query smiles: "Cc1cc(OCCCc2c3n(c4c(-c5c(C)nn(C)c5C)c(Cl)ccc24)CCCN(Cc2cc(C(=O)O)cc(N4CCNCC4)n2)C3=O)cc(C)c1Cl"
  Op: "="
  pKi: 7.24
- Query smiles: "Cc1cc(OCCCc2c3n(c4c(-c5c(C)nn(C)c5C)c(Cl)ccc24)CCCN(c2cc(C(=O)O)cc4cnn(C)c24)C3=O)cc(C)c1Cl"
  Op: ">"
  pKi: 9.00
- Query smiles: "Cc1cc(OCCCc2c3n(c4c(-c5c(C)nn(C)c5C)c(Cl)ccc24)[C@H](C)CN(c2cn(C)c4ccc(C(N)=O)cc24)C3=O)cc(C)c1Cl"
  Op: "="
  pKi: 8.60
